What follows is literature data on pIC50 for LIM domain kinase 1 (Homo sapiens).
Numbers only, as −log10 of the molar value.

See these solved cases before continuing.
| COMPOUND | READOUT_NUMBER |
| --- | --- |
| COC(=O)c1cccc(NC(=O)C2(CN)CCN(c3ncnc4[nH]cc(C)c34)CC2)c1 | 7.80 |
| Cc1c[nH]c2ncnc(-c3ccc(NC(=O)Nc4cncnc4)c(F)c3)c12 | 7.26 |

Here are 4 compounds. What values of pIC50 were reported for them?
1. Nc1ncnc2c1oc1ccccc12
2. Nc1ncnc2c1sc1ccc(-c3ccccc3)cc12
3. CCCNc1ncc(-c2cc(-c3ccc(OC(CC)CC)cc3C)nc(-c3cnccn3)n2)s1
4. Cc1ccc(-c2cc(C(F)(F)F)c3c(N)c(C(N)=O)sc3n2)o1

4.82
5.24
6.67
4.39

Dear colleague, could you send me pIC50 for each of the items below? Thanks.
1. CCCNc1ncc(-c2cc(-c3cc(OCCC)ccc3Cl)nc(-c3cnccn3)n2)s1
2. CC(C)Nc1ncc(-c2cc(-c3ccccc3Cl)nc(-c3ccccn3)n2)s1
3. O=C(Nc1ccc(Nc2ccnc3[nH]c(=O)c4ccccc4c23)cc1)c1ccc(F)cc1C(F)(F)F
4. CCCNc1ncc(-c2cc(-c3ccc(OC(CC)CC)cc3Cl)nc(-c3cnccn3)n2)s1

1: 5.98; 2: 6.60; 3: 7.74; 4: 6.44
